// Serine/threonine-protein kinase TBK1 (Homo sapiens) IC50 records
Value expressed in nM; do not type the unit.

Sample answers from the record:
CPD_SMILES | VALUE_REPORTED
Cc1noc(-c2ccc3nc(Nc4cc(CN5CCN(CCC(F)(F)F)CC5)ccn4)[nH]c3c2)n1 | 281
Cc1noc(-c2ccc3nc(Nc4cc([C@H](C)N5CCN(C(=O)CC(F)(F)F)CC5)ccn4)[nH]c3c2)n1 | 106
CNc1cc(-c2ccc3nc(Nc4cc(CN5CCN(C(=O)CC(F)(F)F)CC5)ccn4)[nH]c3c2)ncn1 | 10
Cc1noc(-c2ccc3nc(Nc4cc(CN5CCN(C(=O)C6CC6)CC5)ccn4)[nH]c3c2)n1 | 148
Cc1cc(-c2ccc3nc(Nc4cc([C@@H](C)N5CCN(C(=O)CC(F)(F)F)CC5)ccn4)[nH]c3c2)ncn1 | 2
CC(C)Oc1cncnc1-c1ccc2nc(Nc3cc([C@@H](C)N4CCN(C(=O)CC(F)(F)F)CC4)ccn3)[nH]c2c1 | 2
O=C(NCC1CC1)c1ccc2nc(Nc3cc(CN4CCN(C(=O)CC(F)(F)F)CC4)ccn3)[nH]c2c1 | 93
C[C@H](c1ccnc(Nc2nc3ccc(-c4cc(OCC5CC5)ncn4)cc3[nH]2)c1)N1CCN(C(=O)CC(F)(F)F)CC1 | 2

Read the next record carefully.
## Task Checklist item: IC50 tested on Serine/threonine-protein kinase TBK1 (Homo sapiens), entry N#Cc1ccc2nc(Nc3cc(CN4CCN(C(=O)CC(F)(F)F)CC4)ccn3)[nH]c2c1 , value?
## Result 29

---

- TESTED_TARGET: Voltage-gated inwardly rectifying potassium channel KCNH2 (Homo sapiens, UniProt Q12809)
- Sequence (Q12809 whole entry): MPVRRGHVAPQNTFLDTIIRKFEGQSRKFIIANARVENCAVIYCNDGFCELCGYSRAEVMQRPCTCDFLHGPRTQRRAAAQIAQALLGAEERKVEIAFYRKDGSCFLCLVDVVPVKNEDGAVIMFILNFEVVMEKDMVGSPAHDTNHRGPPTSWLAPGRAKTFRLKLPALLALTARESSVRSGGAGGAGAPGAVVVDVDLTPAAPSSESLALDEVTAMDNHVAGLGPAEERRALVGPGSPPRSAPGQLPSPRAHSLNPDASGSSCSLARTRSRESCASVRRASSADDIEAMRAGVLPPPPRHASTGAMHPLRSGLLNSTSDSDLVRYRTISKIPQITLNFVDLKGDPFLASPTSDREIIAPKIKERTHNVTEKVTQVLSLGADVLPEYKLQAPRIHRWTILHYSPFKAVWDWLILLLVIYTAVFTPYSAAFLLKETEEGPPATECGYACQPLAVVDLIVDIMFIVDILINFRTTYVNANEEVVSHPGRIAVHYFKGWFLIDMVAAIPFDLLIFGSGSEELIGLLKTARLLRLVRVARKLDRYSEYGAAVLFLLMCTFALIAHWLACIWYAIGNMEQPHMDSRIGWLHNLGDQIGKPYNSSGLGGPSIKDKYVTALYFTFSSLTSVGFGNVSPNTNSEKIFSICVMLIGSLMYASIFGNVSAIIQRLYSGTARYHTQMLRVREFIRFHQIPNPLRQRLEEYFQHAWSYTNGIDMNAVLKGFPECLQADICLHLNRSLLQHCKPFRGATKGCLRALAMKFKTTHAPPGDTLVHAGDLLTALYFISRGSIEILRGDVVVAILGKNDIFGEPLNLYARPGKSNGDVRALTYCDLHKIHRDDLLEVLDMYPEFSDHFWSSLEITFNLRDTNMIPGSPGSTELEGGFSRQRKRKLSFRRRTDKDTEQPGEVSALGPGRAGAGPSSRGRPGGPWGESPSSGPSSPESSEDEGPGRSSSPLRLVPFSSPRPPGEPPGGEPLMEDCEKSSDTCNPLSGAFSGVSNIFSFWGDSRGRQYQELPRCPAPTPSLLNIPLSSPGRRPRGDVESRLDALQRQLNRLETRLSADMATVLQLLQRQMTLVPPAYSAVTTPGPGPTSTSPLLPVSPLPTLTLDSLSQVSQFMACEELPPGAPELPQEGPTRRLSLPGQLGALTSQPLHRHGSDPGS
MEASUREMENT_KIND: pIC50
Remember, pIC50 is on a log scale: it is -log10 of the molar concentration.

## Task Checklist item: pIC50 tested on Voltage-gated inwardly rectifying potassium channel KCNH2 (Homo sapiens, UniProt Q12809), entry C[C@H](c1ccnc(Nc2nc3ccc(-c4cc(N(C)C)ncn4)cc3[nH]2)c1)N1CCN(C(=O)CC(F)(F)F)CC1 , value?
## Result 5.33

---

Entries annotated with measured log10(IC50)
- TESTED_TARGET: IKK epsilon/TBK1 (Homo sapiens, UniProt Q14164+Q9UHD2)
- Sequence (Q14164 whole entry): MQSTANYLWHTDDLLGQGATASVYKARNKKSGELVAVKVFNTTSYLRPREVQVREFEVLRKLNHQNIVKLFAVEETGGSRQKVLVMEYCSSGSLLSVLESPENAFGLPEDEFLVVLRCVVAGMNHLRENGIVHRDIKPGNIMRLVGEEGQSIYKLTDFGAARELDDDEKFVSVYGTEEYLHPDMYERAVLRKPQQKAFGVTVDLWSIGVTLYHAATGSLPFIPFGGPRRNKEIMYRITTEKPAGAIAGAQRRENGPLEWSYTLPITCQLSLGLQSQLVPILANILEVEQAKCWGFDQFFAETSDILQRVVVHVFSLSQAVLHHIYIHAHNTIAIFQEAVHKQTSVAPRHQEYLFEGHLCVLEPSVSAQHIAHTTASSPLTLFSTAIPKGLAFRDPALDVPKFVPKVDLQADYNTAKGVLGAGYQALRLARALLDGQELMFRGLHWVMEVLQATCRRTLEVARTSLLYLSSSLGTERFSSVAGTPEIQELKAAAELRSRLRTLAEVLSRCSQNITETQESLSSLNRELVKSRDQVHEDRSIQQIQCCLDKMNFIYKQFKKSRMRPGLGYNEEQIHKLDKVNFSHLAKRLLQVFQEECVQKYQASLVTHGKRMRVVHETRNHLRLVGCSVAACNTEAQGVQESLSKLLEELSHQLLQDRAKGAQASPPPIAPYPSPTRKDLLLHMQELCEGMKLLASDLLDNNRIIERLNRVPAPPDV
- Sequence (Q9UHD2 whole entry): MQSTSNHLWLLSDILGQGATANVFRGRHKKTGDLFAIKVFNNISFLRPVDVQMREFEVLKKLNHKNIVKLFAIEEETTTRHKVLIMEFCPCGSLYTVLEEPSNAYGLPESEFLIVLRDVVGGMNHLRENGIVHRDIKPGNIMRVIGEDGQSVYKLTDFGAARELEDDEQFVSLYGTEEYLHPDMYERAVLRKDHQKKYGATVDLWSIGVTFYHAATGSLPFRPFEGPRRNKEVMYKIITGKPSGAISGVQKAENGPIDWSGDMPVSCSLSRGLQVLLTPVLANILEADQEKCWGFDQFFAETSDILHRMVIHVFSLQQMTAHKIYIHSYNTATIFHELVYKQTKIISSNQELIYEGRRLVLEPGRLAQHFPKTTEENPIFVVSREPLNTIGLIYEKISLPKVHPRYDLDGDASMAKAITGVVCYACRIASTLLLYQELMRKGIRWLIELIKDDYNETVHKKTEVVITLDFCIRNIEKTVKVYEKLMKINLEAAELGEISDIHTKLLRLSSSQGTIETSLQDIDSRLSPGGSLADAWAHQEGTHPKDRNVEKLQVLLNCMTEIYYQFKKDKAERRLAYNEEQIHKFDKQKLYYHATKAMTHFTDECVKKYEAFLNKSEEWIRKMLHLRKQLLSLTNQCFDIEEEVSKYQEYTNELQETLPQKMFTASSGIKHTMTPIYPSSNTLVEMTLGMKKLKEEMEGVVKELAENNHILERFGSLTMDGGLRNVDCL
- TEST_SUMMARY: Inhibition of IKKepsilon/TBK1 in human MDB-MB-231 cells transduced with lentiviral vector expressing human IRF3 assessed as decrease in poly(I:C)-stimulated IRF3 phosphorylation at S385/386 residues preincubated for 1 hr followed by poly(I:C) addition and measured after 1 hr
The figures below represent log10 of IC50, where IC50 is stated in nM.

Sample answers from the record:
CPD_SMILES | TESTED_TARGET | log10(IC50)
Cc1cc(-c2ccc3nc(Nc4cc(CN5CCN(C(=O)CC(F)(F)F)CC5)ccn4)[nH]c3c2)ccn1 | IKK epsilon/TBK1 (Homo sapiens, UniProt Q14164+Q9UHD2) | 2.92
CC(C)Oc1cncnc1-c1ccc2nc(Nc3cc([C@@H](C)N4CCN(C(=O)CC(F)(F)F)CC4)ccn3)[nH]c2c1 | IKK epsilon/TBK1 (Homo sapiens, UniProt Q14164+Q9UHD2) | 2.08
CN(C)c1cc(-c2ccc3nc(Nc4cc(CN5CCN(C(=O)CC(F)(F)F)CC5)ccn4)[nH]c3c2)ccn1 | IKK epsilon/TBK1 (Homo sapiens, UniProt Q14164+Q9UHD2) | 3.10
Cc1noc(-c2ccc3nc(Nc4cc(CN5CCN(C(=O)CC(F)(F)F)CC5)ccn4)[nH]c3c2)n1 | IKK epsilon/TBK1 (Homo sapiens, UniProt Q14164+Q9UHD2) | 3.44

## Task Checklist item: log10(IC50) tested on IKK epsilon/TBK1 (Homo sapiens, UniProt Q14164+Q9UHD2), entry Cn1cc(-c2ccc3nc(Nc4cc(CN5CCN(C(=O)CC(F)(F)F)CC5)ccn4)[nH]c3c2)cn1 , value?
## Result 3.29

## Task Checklist item: log10(IC50) tested on IKK epsilon/TBK1 (Homo sapiens, UniProt Q14164+Q9UHD2), entry CNc1cc(-c2ccc3nc(Nc4cc(CN5CCN(C(=O)CC(F)(F)F)CC5)ccn4)[nH]c3c2)ncn1 , value?
## Result 3.30

## Task Checklist item: log10(IC50) tested on IKK epsilon/TBK1 (Homo sapiens, UniProt Q14164+Q9UHD2), entry CN(C)c1cc(-c2ccc3nc(Nc4cc(CN5CCN(C(=O)CC(F)(F)F)CC5)ccn4)[nH]c3c2)ncn1 , value?
## Result 2.33

## Task Checklist item: log10(IC50) tested on IKK epsilon/TBK1 (Homo sapiens, UniProt Q14164+Q9UHD2), entry C[C@H](c1ccnc(Nc2nc3ccc(-c4cnn(CC5CCC5)c4)cc3[nH]2)c1)N1CCN(C(=O)CC(F)(F)F)CC1 , value?
## Result 1.97

## Task Checklist item: log10(IC50) tested on IKK epsilon/TBK1 (Homo sapiens, UniProt Q14164+Q9UHD2), entry Cc1noc(-c2ccc3nc(Nc4cc([C@@H](C)N5CCN(C(=O)CC(F)(F)F)CC5)ccn4)[nH]c3c2)n1 , value?
## Result 3.08

## Task Checklist item: log10(IC50) tested on IKK epsilon/TBK1 (Homo sapiens, UniProt Q14164+Q9UHD2), entry C[C@H](c1ccnc(Nc2nc3ccc(-c4cc(OCC5CC5)ncn4)cc3[nH]2)c1)N1CCN(C(=O)CC(F)(F)F)CC1 , value?
## Result 1.82

## Task Checklist item: log10(IC50) tested on IKK epsilon/TBK1 (Homo sapiens, UniProt Q14164+Q9UHD2), entry Cc1noc(-c2ccc3nc(Nc4cc([C@H](C)N5CCN(C(=O)CC(F)(F)F)CC5)ccn4)[nH]c3c2)n1 , value?
## Result 3.48

## Task Checklist item: log10(IC50) tested on IKK epsilon/TBK1 (Homo sapiens, UniProt Q14164+Q9UHD2), entry Cc1noc(-c2ccc3nc(Nc4cc(CN5CCN(CC(F)F)CC5)ccn4)[nH]c3c2)n1 , value?
## Result 3.68

## Task Checklist item: log10(IC50) tested on IKK epsilon/TBK1 (Homo sapiens, UniProt Q14164+Q9UHD2), entry N#Cc1ccc2nc(Nc3cc(CN4CCN(C(=O)CC(F)(F)F)CC4)ccn3)[nH]c2c1 , value?
## Result 3.31

## Task Checklist item: log10(IC50) tested on IKK epsilon/TBK1 (Homo sapiens, UniProt Q14164+Q9UHD2), entry Cc1cc(-c2ccc3nc(Nc4cc([C@@H](C)N5CCN(C(=O)CC(F)(F)F)CC5)ccn4)[nH]c3c2)ncn1 , value?
## Result 2.15
